Listing of entries alongside the reported pIC50.
experimental target: GST-tagged recombinant full-length human Pim-2 (Homo sapiens, UniProt Q9P1W9)
Construct: GST-tagged recombinant full-length human Pim-2; GST
Sequence (Q9P1W9 whole entry): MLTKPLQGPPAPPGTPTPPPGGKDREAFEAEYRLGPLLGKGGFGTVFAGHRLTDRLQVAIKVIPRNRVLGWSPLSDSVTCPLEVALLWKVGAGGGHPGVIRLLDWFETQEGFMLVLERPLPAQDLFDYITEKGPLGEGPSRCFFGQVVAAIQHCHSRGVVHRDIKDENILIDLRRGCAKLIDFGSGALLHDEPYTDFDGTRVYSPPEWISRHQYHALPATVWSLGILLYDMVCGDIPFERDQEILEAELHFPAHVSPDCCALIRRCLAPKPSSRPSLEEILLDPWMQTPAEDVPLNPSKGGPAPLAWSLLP
assay procedure: PIM-2 Assay (as Example A)
reported conditions: averaged IC50; 4 μM ATP, 1.0 μM PIM2tide, 1.5 nM Pim-2
Structures can show the parent of a compound that is named as a salt.
Formally, pIC50 is defined as -log10 of the concentration c, with c in mol/L.

// solved cases for pIC50 follow
compound	experimental target	quantitative readout
N[C@H]1CCN([C@@H](c2ccc3nnc(-c4ccc5cccc(OCC6CC6)c5n4)n3c2)C(F)(F)F)C1 (single isomer, unassigned) [Example 10, dihydrochloride]	GST-tagged recombinant full-length human Pim-2 (Homo sapiens, UniProt Q9P1W9)	6.51
N[C@H]1CCN(C(c2ccc3nnc(-c4ccc5ccc(-c6cccnc6)cc5n4)n3c2)C(F)(F)F)C1 (stereo partly drawn) [Example 18, tri-hydrochloride]	GST-tagged recombinant full-length human Pim-2 (Homo sapiens, UniProt Q9P1W9)	6.76

Quick one: pIC50 of N[C@H]1CCN([C@H](c2ccc3nnc(-c4ccc5ccc(SCCO)cc5n4)n3c2)C(F)(F)F)C1 [Example 267, hydrochloride] ?
6.46

Also, CC(C)(C)c1cccc2ccc(-c3nnc4ccc([C@@H](N5CC[C@H](N)C5)C(F)(F)F)cn34)nc12 [Example 45, dihydrochloride] please.
7.54

Also, CC(C)(O)COc1cc2nc(-c3nnc4ccc([C@@H](N5CC[C@H](N)C5)C(F)(F)F)cn34)ccc2cc1F [Example 302, dihydrochloride] please.
7.16

###

experimental target: GST-tagged recombinant full-length human Pim-2 (Homo sapiens, UniProt Q9P1W9)
Construct: GST-tagged recombinant full-length human Pim-2; GST
assay procedure: PIM-2 Assay (as Example A)
reported conditions: averaged IC50; 4 μM ATP, 1.0 μM PIM2tide, 1.5 nM Pim-2
Counter-ions that a name gives are not always drawn.
measured property: pIC50
Formally, pIC50 is defined as -log10 of the concentration c, with c in mol/L.

// solved cases for pIC50 follow
> print(dat)
                                   compound                       experimental.target  quantitative.readout
1  CO[C@H](C)COc1ccc2cc(F)c(-c3nnc4ccc([C@@H](N5CC[C@H](N)C5)C(F)(F)F)cn34)nc2c1 [Example 328]  GST-tagged recombinant full-length human Pim-2 (Homo sapiens, UniProt Q9P1W9)                  6.13
2  NC[C@@H]1CCN(C(c2ccc3nnc(-c4ccc5cccc(OCC6CC6)c5n4)n3c2)C(F)(F)F)C1 (stereo partly drawn) [Example 24, dihydrochloride]  GST-tagged recombinant full-length human Pim-2 (Homo sapiens, UniProt Q9P1W9)                  6.03

Note: attention shifts to another entry.
Quick one: pIC50 of C[C@H](c1ccc2nnc(-c3ccc4cccc(C(C)(C)C)c4n3)n2c1)N1CC[C@H](N)C1 [Example 307, trihydrochloride] ?
7.20

###

Listing of entries alongside the reported pIC50.
experimental target: recombinant rat PIM-3 (Rattus norvegicus, UniProt O70444)
assay procedure: PIM-3 Assay (as Example A)
reported conditions: averaged IC50; 30 μM ATP, 3.75 μM PIM2tide, 0.5 nM PIM-3
Structures can show the parent of a compound that is named as a salt.
Formally, pIC50 is defined as -log10 of the concentration c, with c in mol/L.

// solved cases for pIC50 follow
compound	pIC50
C[C@H](c1ccc2nnc(-c3ccc4cccc(C(C)(C)C)c4n3)n2c1)N1CC[C@H](N)C1 [Example 307, trihydrochloride]	8.16
CCOc1cc2nc(-c3nnc4ccc([C@@H](N5CC[C@@](C)(N)C5)C(F)(F)F)cn34)ccc2cc1F [Example 293, hydrochloride]	8.96
Cn1cc(-c2ccc3ccc(-c4nnc5ccc([C@H](N6CC[C@H](N)C6)C(F)(F)F)cn45)nc3c2)cn1 (single isomer, unassigned) [Example 14, tri-hydrochloride]	9.40
C[C@@]1(N)CCN([C@H](c2ccc3nnc(-c4ccc5cccc(C6CC6)c5n4)n3c2)C(F)(F)F)C1 [Example 95, dihydrochloride]	8.52
CSCCOc1ccc2ccc(-c3nnc4ccc([C@@H](N5CC[C@H](N)C5)C(F)(F)F)cn34)nc2c1 [Example 281, hydrochloride]	9.15

Note: attention shifts to another entry.
Quick one: pIC50 of COCCOc1cc(F)cc2ccc(-c3nnc4ccc([C@@H](N5CC[C@H](N)C5)C(F)(F)F)cn34)nc12 [Example 98, hydrochloride] ?
8.74

###

experimental target: PIM-1 (Homo sapiens, UniProt P11309)
Sequence (P11309 whole entry, species assumed): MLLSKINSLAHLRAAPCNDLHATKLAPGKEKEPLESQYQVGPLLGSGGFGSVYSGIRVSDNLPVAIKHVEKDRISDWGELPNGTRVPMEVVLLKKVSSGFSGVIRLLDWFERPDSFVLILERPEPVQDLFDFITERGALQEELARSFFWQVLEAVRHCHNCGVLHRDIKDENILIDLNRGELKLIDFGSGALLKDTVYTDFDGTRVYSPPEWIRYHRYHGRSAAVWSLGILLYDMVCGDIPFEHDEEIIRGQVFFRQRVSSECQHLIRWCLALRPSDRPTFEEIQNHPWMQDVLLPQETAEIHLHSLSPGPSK
assay procedure: Enzyme PIM-1 Assay ([33P]ATP incorporation into PIM2tide, filter plate)
Format: biochemical
reported conditions: averaged IC50; 35 μM ATP, 7.5 μM PIM2tide, 0.25 nM PIM-1, 60 min at 22° C.
Counter-ions that a name gives are not always drawn.
Listing of entries alongside the reported pIC50.
Formally, pIC50 is defined as -log10 of the concentration c, with c in mol/L.

Quick one: pIC50 of Cc1nn(C)cc1-c1cc2nc(-c3nnc4ccc([C@@H](N5CC[C@H](N)C5)C(F)(F)F)cn34)ccc2cc1F [Example 205, dihydrochloride] ?
9.85

###

experimental target: recombinant rat PIM-3 (Rattus norvegicus, UniProt O70444)
assay procedure: PIM-3 Assay (as Example A)
reported conditions: averaged IC50; 30 μM ATP, 3.75 μM PIM2tide, 0.5 nM PIM-3
Structures can show the parent of a compound that is named as a salt.
measured property: pIC50
Formally, pIC50 is defined as -log10 of the concentration c, with c in mol/L.

// solved cases for pIC50 follow
> print(dat)
                                   compound                       experimental.target  quantitative.readout
1  CC(C)(C)c1cccc2ccc(-c3nnc4ccc([C@@H](N5CC[C@H](NCCO)C5)C(F)(F)F)cn34)nc12 [Example 100, dihydrochloride]  recombinant rat PIM-3 (Rattus norvegicus, UniProt O70444)                  8.96
2  CCOc1cc2nc(-c3nnc4ccc([C@H](N5CC[C@H](CN)C5)C(F)(F)F)cn34)ccc2cc1F [Example 296, hydrochloride]  recombinant rat PIM-3 (Rattus norvegicus, UniProt O70444)                  7.92

Note: attention shifts to another entry.
Quick one: pIC50 of COc1ccc2ccc(-c3nnc4ccc([C@H](N5CC[C@](C)(N)C5)C(F)(F)F)cn34)nc2c1 [Example 312] ?
9.10

###

experimental target: recombinant rat PIM-3 (Rattus norvegicus, UniProt O70444)
assay procedure: PIM-3 Assay (as Example A)
reported conditions: averaged IC50; 30 μM ATP, 3.75 μM PIM2tide, 0.5 nM PIM-3
Counter-ions that a name gives are not always drawn.
Classify on IC50 using low group (below 0.8 nM), middle group (0.8 nM to below 2 nM), high group (2 nM or more)

Recorded results for 8 compounds are shown here.
compound	label class
CC(C)(C)c1cccc2ccc(-c3nnc4ccc([C@@H](N5C[C@@H]6C[C@H]5CN6)C(F)(F)F)cn34)nc12	middle group
Cn1cc(-c2cc3nc(-c4nnc5ccc([C@@H](N6CC[C@H](N)C6)C(F)(F)F)cn45)ccc3cc2F)cn1 [Example 173, tri-hydrochloride]	low group
COc1cccc2ccc(-c3nnc4ccc(C(N5C[C@H](O)[C@@H](O)C5)C(F)(F)F)cn34)nc12 (stereo partly shown)	high group
CC(C)Oc1ccc2ccc(-c3nnc4ccc([C@H](N5CC[C@](C)(N)C5)C(F)(F)F)cn34)nc2c1	low group
CC(C)NC(=O)c1ccc2ccc(-c3nnc4ccc([C@@H](N5CC[C@H](N)C5)C(F)(F)F)cn34)nc2c1 [Example 34, dihydrochloride]	low group
N[C@@H]1CCN([C@@H](c2ccc3nnc(-c4ccc5cccc(OCC6CC6)c5n4)n3c2)C(F)(F)F)C1 (single isomer, unassigned)	high group
CC(C)(C)C(=O)Nc1ccc2ccc(-c3nnc4ccc([C@@H](N5CC[C@H](O)C5)C(F)(F)F)cn34)nc2c1	middle group
CCOc1cc2nc(-c3nnc4ccc([C@@H](C)N5CC[C@H](N)C5)cn34)ccc2cc1F [Example 309, trihydrochloride]	high group

Where would COCCCOc1cc(F)cc2ccc(-c3nnc4ccc([C@@H](N5CC[C@H](N)C5)C(F)(F)F)cn34)nc12 [Example 233, dihydrochloride] land among the classes by reported IC50?
middle group

Also, CN[C@H]1CCN([C@H](c2ccc3nnc(-c4ccc5cccc(OCC6CC6)c5n4)n3c2)C(F)(F)F)C1 [Example 43, dihydrochloride] please.
middle group

###

experimental target: recombinant rat PIM-3 (Rattus norvegicus)
assay procedure: PIM-3 Assay (as Example A)
reported conditions: averaged IC50; 30 μM ATP, 3.75 μM PIM2tide, 0.5 nM PIM-3
Structures can show the parent of a compound that is named as a salt.
measured property: IC50 (nM)
Numeric answer only, unit nM assumed.

// solved cases for IC50 follow
> print(dat)
                                   molecule  measured.property  quantitative.readout
1  N[C@@H]1CCN([C@H](c2ccc3nnc(-c4ccc5cccc(OCC6CC6)c5n4)n3c2)C(F)(F)F)C1 (single isomer, unassigned)               IC50                   2.9
2  C[C@@H](O)COc1cccc2ccc(-c3nnc4ccc([C@@H](N5CC[C@H](N)C5)C(F)(F)F)cn34)nc12               IC50                   0.7
3  COc1cc2nc(-c3nnc4ccc([C@@H](N5CC[C@H](N)C5)C(F)(F)F)cn34)ccc2cc1F [Example 113, hydrochloride]               IC50                   2.3

Quick one: IC50 of CCc1cccc2ccc(-c3nnc4ccc([C@@H](N5C[C@@H]6C[C@H]5CN6)C(F)(F)F)cn34)nc12 [Example 66, dihydrochloride] ?
1.7

Also, N[C@@H]1CN([C@H](c2ccc3nnc(-c4ccc5cc(F)cc(C6CC6)c5n4)n3c2)C(F)(F)F)C[C@H]1O [Example 181, dihydrochloride] please.
2.7

Also, COC(C)(C)COc1cccc2ccc(-c3nnc4ccc([C@@H](N5CC[C@H](N)C5)C(F)(F)F)cn34)nc12 [Example 276, formate] please.
0.3
